Reference source: patent US5096898A

protocolDetails: Physico-chemical characteristics (Table 1)
Type: physicochemical
endpoint: pKa
One number for each entry.

# smilesStructure, pKa
data = [
    ("C[C@H](CC/C=C/CC(=O)O)[C@H]1CC[C@H]2[C@@H]3[C@@H](O)C[C@@H]4C[C@H](O)CC[C@]4(C)[C@H]3CC[C@]12C", 5.02),
]

# input for lookup
Per the records, this compound ( C[C@H](CCC(=O)NCC(=O)O)[C@H]1CC[C@H]2[C@@H]3[C@@H](O)C[C@@H]4C[C@H](O)CC[C@]4(C)[C@H]3CC[C@]12C ) has pKa equal to 3.9

###

protocolDetails: Physico-chemical characteristics (Table 1)
Assay type: physicochemical
conditions: c18 hplc; read-out: Retention times with C18-HPLC (K') (converted)
endpoint: chromatographic logP

See these solved cases before continuing.
# smilesStructure, chromatographic logP
records = [
    ("C[C@H](CCC(=O)NCC(=O)O)[C@H]1CC[C@H]2[C@@H]3[C@@H](O)C[C@@H]4C[C@H](O)CC[C@]4(C)[C@H]3CC[C@]12C", 0.0253),
    ("C[C@H](CCC(=O)O)[C@H]1CC[C@H]2[C@@H]3[C@@H](O)C[C@@H]4C[C@H](O)CC[C@]4(C)[C@H]3CC[C@]12C", 0.563),
]

# input for lookup
Per the records, this compound ( C[C@H](CCC(=O)NCCS(=O)(=O)O)[C@H]1CC[C@H]2[C@@H]3[C@@H](O)C[C@@H]4C[C@H](O)CC[C@]4(C)[C@H]3CC[C@]12C ) has chromatographic logP equal to -0.00877
